# tgt: human TLR8 (Homo sapiens (Human), UniProt Q9NR97)
# Sequence (Q9NR97 27-1041): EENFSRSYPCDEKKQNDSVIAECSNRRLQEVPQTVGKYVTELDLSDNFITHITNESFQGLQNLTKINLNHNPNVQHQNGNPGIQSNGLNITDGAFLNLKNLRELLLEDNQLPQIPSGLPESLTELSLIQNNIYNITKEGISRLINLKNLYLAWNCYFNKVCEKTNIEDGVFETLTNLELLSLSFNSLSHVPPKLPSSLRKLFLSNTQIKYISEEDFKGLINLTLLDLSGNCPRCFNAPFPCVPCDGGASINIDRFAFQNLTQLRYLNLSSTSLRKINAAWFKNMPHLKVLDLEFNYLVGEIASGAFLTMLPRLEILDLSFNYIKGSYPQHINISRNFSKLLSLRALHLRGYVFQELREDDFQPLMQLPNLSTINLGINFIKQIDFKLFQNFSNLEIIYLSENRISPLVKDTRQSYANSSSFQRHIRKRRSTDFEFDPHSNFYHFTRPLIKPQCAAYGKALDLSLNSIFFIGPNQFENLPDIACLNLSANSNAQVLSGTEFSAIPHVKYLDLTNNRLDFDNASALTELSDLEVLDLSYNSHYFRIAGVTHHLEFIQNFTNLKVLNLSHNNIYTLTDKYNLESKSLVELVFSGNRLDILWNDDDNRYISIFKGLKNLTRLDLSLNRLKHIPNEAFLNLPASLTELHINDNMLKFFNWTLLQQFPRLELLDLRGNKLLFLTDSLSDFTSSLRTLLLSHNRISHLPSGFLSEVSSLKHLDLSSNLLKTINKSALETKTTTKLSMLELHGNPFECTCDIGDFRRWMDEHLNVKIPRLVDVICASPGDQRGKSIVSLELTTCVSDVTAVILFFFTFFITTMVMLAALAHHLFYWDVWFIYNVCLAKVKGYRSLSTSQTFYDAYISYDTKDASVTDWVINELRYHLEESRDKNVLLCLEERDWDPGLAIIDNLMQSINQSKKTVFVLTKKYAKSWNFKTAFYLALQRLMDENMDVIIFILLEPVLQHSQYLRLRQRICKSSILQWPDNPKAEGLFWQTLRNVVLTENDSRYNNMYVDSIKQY
# assayOverview: TLR8 inhibition reporter assay (HEK-Blue cells, SEAP reporter, R848 stimulation);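 also: compounds tested from 0.05 nM to 50 µM, 22 h at 37 °C, SEAP measured with HEK-Blue Detection, inhibition relative to agonist plus DMSO versus a known inhibitor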
# setupConditions: read-out: TLR8 IC50, HEK-Blue cells overexpressing human TLR8, R848 15.9 μM
Rule for this label: condition met means IC50 is less than 10 nM; condition not met means IC50 is at least 10 nM.

- CCc1c(-c2ccnc(C)c2)[nH]c2ccc(C3CCN(C(=O)C4CCCNC4)CC3)cc12 (centres unmarked): condition not met
- Cc1cc(-c2[nH]c3ccc(C4CCN(Cc5nnc(C6CC6)o5)CC4)cc3c2C(C)C)c(C)cn1: condition not met
- Cc1cc(-c2[nH]c3ccc(C4CCN(C5CCN(C(C)C)CC5)CC4)cc3c2C(C)C)ccn1: condition met
- CCc1c(-c2ccnc(C)c2)[nH]c2ccc(C3CCN(C[C@@H]4CCCN4C(C)C)CC3)cc12: condition not met
- Cc1cc(-c2[nH]c3ccc(C4CCN(C5CCCNC5)CC4)cc3c2C(C)C)ccn1 (centres unmarked): condition met
- Cc1cc(-c2[nH]c3ccc(C4CCN(C5CCCN(C(C)C)C5)CC4)cc3c2C(C)C)ccn1 (centres unmarked): condition met
- COc1cc(OC)nc(CN2CCC(c3ccc4[nH]c(-c5cc(C)nc(C)c5)c(C(C)C)c4c3)CC2)n1: condition met
- CCc1c(-c2cc(C)nc(C)c2)[nH]c2ccc(C3CCNCC3)cc12: condition not met
